# Test target: mAChR M4 (Homo sapiens, UniProt P08173)
# Construct: expressed in transfected cells; host or cells: CHO-K1 cells stably transfected with M4 cDNA and chimeric G-protein Gqi5
# Sequence (P08173 whole entry): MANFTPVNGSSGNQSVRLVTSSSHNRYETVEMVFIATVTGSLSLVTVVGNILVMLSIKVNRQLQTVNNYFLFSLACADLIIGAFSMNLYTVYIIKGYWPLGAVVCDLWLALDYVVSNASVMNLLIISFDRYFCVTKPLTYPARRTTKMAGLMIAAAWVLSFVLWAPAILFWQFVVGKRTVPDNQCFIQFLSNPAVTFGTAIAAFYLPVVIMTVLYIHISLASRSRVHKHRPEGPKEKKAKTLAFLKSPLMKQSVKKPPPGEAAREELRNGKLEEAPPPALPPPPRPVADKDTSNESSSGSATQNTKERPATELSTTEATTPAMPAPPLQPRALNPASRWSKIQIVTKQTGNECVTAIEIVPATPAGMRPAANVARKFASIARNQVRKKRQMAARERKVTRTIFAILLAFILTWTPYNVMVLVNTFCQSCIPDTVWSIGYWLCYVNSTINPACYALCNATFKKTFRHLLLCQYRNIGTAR
# Assay overview: mAChR M4 cell-based functional assay (calcium mobilization, potentiation of EC20 acetylcholine response)
# Recorded conditions: mAChR M4 cell-based functional assay; >10,000 estimated for low potency compounds without plateau; read-out: EC50
Result type: pEC50
In textbook form, pEC50 equals minus log to base ten of the concentration in mol/L.

Let me check: Cc1nnc2sc(C(=O)NCCNC(=O)OCc3ccccc3)c(N)c2c1C , system mAChR M4 (Homo sapiens, UniProt P08173), measured pEC50 is 5.44

Param item: Cc1nnc2sc(C(=O)NCc3ccc(S(=O)(=O)C(C)(C)C)cc3)c(N)c2c1C ; param system: mAChR M4 (Homo sapiens, UniProt P08173); output pEC50: 7.39

Result for Cc1nnc2sc(C(=O)NCc3ccc(S(C)(=O)=O)cc3)c(N)c2c1C , tested on mAChR M4 (Homo sapiens, UniProt P08173), pEC50: 6.35

Lab note: compound Cc1nnc2sc(C(=O)NC3CCN(S(=O)(=O)c4cccc(F)c4)C3)c(N)c2c1C (centres unmarked) tested on mAChR M4 (Homo sapiens, UniProt P08173); recorded pEC50 was 6.41

Known value: mAChR M4 (Homo sapiens, UniProt P08173) pEC50 of the compound COc1cc(CNC(=O)c2sc3nnc(C)c(C)c3c2N)ccn1 equals 6.64

// assay mAChR M4 (Homo sapiens, UniProt P08173), entry Cc1nnc2sc(C(=O)NC3CN(C(=O)N4CCCCC4)C3)c(N)c2c1C , pEC50 value = 6.00

# Cc1nnc2sc(C(=O)NCc3ccc4c(c3)OCCO4)c(N)c2c1C with mAChR M4 (Homo sapiens, UniProt P08173): pEC50 is 7.52

Cc1nnc2sc(C(=O)NCc3ccc(S(C)(=O)=O)cn3)c(N)c2c1C tested on mAChR M4 (Homo sapiens, UniProt P08173) gave pEC50: 6.11

// pEC50 (mAChR M4 (Homo sapiens, UniProt P08173)) for Cc1nnc2sc(C(=O)N3CC4CN(C(=O)C5CCC5)CC4C3)c(N)c2c1C (centres unmarked) = 5.59

Value (pEC50, mAChR M4 (Homo sapiens, UniProt P08173)) for record COc1ncc(-c2ccc(CNC(=O)c3sc4nnc(C)c(C)c4c3N)cc2)cn1 = 7.32

The compound Cc1nnc2sc(C(=O)N3CC(F)(c4cccc(-c5cncnc5)c4)C3)c(N)c2c1C on mAChR M4 (Homo sapiens, UniProt P08173): pEC50 was 6.54

For COc1cncc(NC(=O)c2sc3nnc(C)c(C)c3c2N)c1 on mAChR M4 (Homo sapiens, UniProt P08173), measured pEC50 was 6.42

GET /values?item= Cc1nnc2sc(C(=O)NCc3ccc(-c4ccc(F)nc4)cc3)c(N)c2c1C &system= mAChR M4 (Homo sapiens, UniProt P08173) returns pEC50: 7.82

Tested on mAChR M4 (Homo sapiens, UniProt P08173): Cc1nnc2sc(C(=O)NC3CN(c4nccs4)C3)c(N)c2c1C . Observed pEC50: 5.68

Form field, pEC50 with mAChR M4 (Homo sapiens, UniProt P08173), item Cc1nnc2sc(C(=O)NCCc3ccncc3)c(N)c2c1C : 5.64

Tested on mAChR M4 (Homo sapiens, UniProt P08173): CCCCC(=O)N1CC2CN(C(=O)c3sc4nnc(C)c(C)c4c3N)CC2C1 (centres unmarked) . Observed pEC50: 5.89

Measured pEC50 (mAChR M4 (Homo sapiens, UniProt P08173)), entry Cc1nnc2sc(C(=O)N3CC(F)(c4cccc(-c5cnn(C)c5)c4)C3)c(N)c2c1C : 6.23

The compound COC1(c2cccc(F)c2)CN(C(=O)c2sc3nnc(C)c(C)c3c2N)C1 on mAChR M4 (Homo sapiens, UniProt P08173): pEC50 was 6.46

// pEC50 (mAChR M4 (Homo sapiens, UniProt P08173)) for CCCCC1(OC)CN(C(=O)c2sc3nnc(C)c(C)c3c2N)C1 = 6.06

Record [2H]C([2H])(NC(=O)c1sc2nnc(C)c(C)c2c1N)c1ccc(S(=O)(=O)C(F)F)cc1 has mAChR M4 (Homo sapiens, UniProt P08173) pEC50 equal to 7.64

Kindly note: mAChR M4 (Homo sapiens, UniProt P08173), Cc1nnc2sc(C(=O)N3CCC(NS(=O)(=O)c4cccc(F)c4)C3)c(N)c2c1C (centres unmarked) , pEC50 value reported: 5.85

The compound Cc1nnc2sc(C(=O)N3CC(F)(c4ccccn4)C3)c(N)c2c1C , when measured on mAChR M4 (Homo sapiens, UniProt P08173), yielded pEC50 of 6.30

---

# Test target: mAChR M4 (Homo sapiens, UniProt P08173)
# Construct: expressed in transfected cells; host or cells: CHO-K1 cells stably transfected with M4 cDNA and chimeric G-protein Gqi5
# Assay overview: mAChR M4 cell-based functional assay (calcium mobilization, potentiation of EC20 acetylcholine response)
# Recorded conditions: % ACh maximum at 30 μM
Kindly state Emax at 30 µM for each of the entries shown.
Hi! Could you send only the number? It should be in %, unit omitted.

Emax at 30 µM of Cc1nnc2sc(C(=O)NC3CN(C(=O)NCCCN4CCOCC4)C3)c(N)c2c1C , assay on mAChR M4 (Homo sapiens, UniProt P08173), is 55

Reading of Emax at 30 µM for Cc1nnc2sc(C(=O)NC3CN(C(=O)Oc4cccc(Cl)c4)C3)c(N)c2c1C with mAChR M4 (Homo sapiens, UniProt P08173): 55

Here Cc1cncc(NC(=O)c2sc3nnc(C)c(C)c3c2N)c1 was tested on mAChR M4 (Homo sapiens, UniProt P08173), and its Emax at 30 µM came to 31

Short answer on mAChR M4 (Homo sapiens, UniProt P08173) for Cc1nnc2sc(C(=O)NCCN(C)S(C)(=O)=O)c(N)c2c1C , Emax at 30 µM: 41

For Cc1c(CN2CCOCC2)nnc2sc(C(=O)NCc3ccc(S(=O)(=O)C(F)(F)F)cc3)c(N)c12 on mAChR M4 (Homo sapiens, UniProt P08173), measured Emax at 30 µM was 72

Response field Emax at 30 µM (mAChR M4 (Homo sapiens, UniProt P08173)) for item Cc1nnc2sc(C(=O)NCc3ccc(O)c(F)c3)c(N)c2c1C : 66

Form field, Emax at 30 µM with mAChR M4 (Homo sapiens, UniProt P08173), item Cc1nnc2sc(C(=O)NC3CN(C(=O)Nc4ccc(F)cc4)C3)c(N)c2c1C : 57

Note to self: Emax at 30 µM of Cc1nnc2sc(C(=O)N3CC(F)(c4cccc(-c5cccnc5)c4)C3)c(N)c2c1C with mAChR M4 (Homo sapiens, UniProt P08173) was 48

# lookup: Cc1nnc2sc(C(=O)NC3CN(C(=O)C4CC4)C3)c(N)c2c1C on mAChR M4 (Homo sapiens, UniProt P08173), Emax at 30 µM = 73

mAChR M4 (Homo sapiens, UniProt P08173) Emax at 30 µM of Cc1nnc2sc(C(=O)NCc3ccc(F)c(S(C)(=O)=O)c3)c(N)c2c1C is 63

---

Task for the reader: assign each of the following molecules its reported EC50.
# Test target: mAChR M4 (Homo sapiens)
# Construct: expressed in transfected cells; host or cells: CHO-K1 cells stably transfected with M4 cDNA and chimeric G-protein Gqi5
# Assay overview: mAChR M4 cell-based functional assay (calcium mobilization, potentiation of EC20 acetylcholine response)
# Recorded conditions: mAChR M4 cell-based functional assay; >10,000 estimated for low potency compounds without plateau; read-out: EC50

According to the records, this molecule Cc1nnc2sc(C(=O)NCc3ccc(=O)n(C)c3)c(N)c2c1C [Example B444] displays EC50 of > 10 µM

Quick note, EC50 for Cc1nnc2sc(C(=O)N3CC4(CN(C(=O)c5ccccc5)C4)C3)c(N)c2c1C [Example B404] landed at > 10 µM

Lab note: measured EC50 of Cc1nnc2sc(C(=O)N3CCC(NC(=O)c4ccccn4)C3)c(N)c2c1C (stereo not drawn) [Example B240] was > 10 µM

// EC50 lookup, molecule = COc1ccc(CNC(=O)c2sc3nnc(C)c(C)c3c2N)cc1Br [Example B482] , result: 0.087 µM

Briefly, EC50 measured for Cc1nnc2sc(C(=O)NCC3CCS(=O)(=O)CC3)c(N)c2c1C [Example B149] : > 10 µM

Lab book: EC50 of Cc1nnc2sc(C(=O)NC3CN(S(=O)(=O)CC(F)(F)F)C3)c(N)c2c1C [Example B119] noted as 0.082 µM

EC50 recorded for this molecule, Nc1c(C(=O)NCc2ccc(S(=O)(=O)C(F)(F)F)cc2)sc2nnc3c(c12)CCCC3 [Example B189] , is 0.42 µM

EC50 in this record for Cc1nnc2sc(C(=O)NCCN(C)C(=O)c3ccc(F)cc3)c(N)c2c1C [Example B357] : > 10 µM

Measured EC50, Cc1nnc2sc(C(=O)N3CC[C@H](F)C3)c(N)c2c1C [Example B69] : > 10 µM
